Entry source: PubChem BioAssay (NCI)

Test system: EKVX NSCLC
Assay: NCI tumour cell line growth inhibition, 48 h
MEASURED_METRIC: TGI

Query string: Quick check: TGI of `CCCCCCCN(CCCCCCC)C(=N)c1ccc(OC)c2ccccc12` ?
Result string: 2.85 µM

Query string: Quick check: TGI of `COc1ccc(C2=Nn3c(nc4sc5c(c4c3=O)CCCC5)SC2)cc1` ?
Result string: > 100 µM

Query string: Quick check: TGI of C#Cc1cccc(NC(=O)C2CCCCN2C(=O)CCl)c1 (stereo unspecified) ?
Result string: > 82.5 µM

Query string: Quick check: TGI of `CCc1c[n+]2c(cc1C1=CN3c4ccccc4[C@]45CCN6C/C(=C/CO)[C@H](C[C@H]64)[C@@H]([C@@H]1O)[C@H]35)-c1[nH]c3ccccc3c1CC2` ?
Result string: > 50 µM

Query string: Quick check: TGI of `O=C(NNC(=O)c1ccccc1O)c1cccs1` ?
Result string: > 100 µM
